Provenance of the data: PubChem BioAssay (NCI)

Property: growth; scope: individual molecules
Tested on: PC-3 prostate
procedure.summary: NCI-60 one-dose screen, 48 h (100 = growth as untreated, 0 = no growth, -100 = all killed)
conditions.used: 10 µM unless noted
Protocol: Growth inhibition of the PC-3 human tumor cell line is measured as a screen for anti-cancer activity. Cells are grown in 96 well plates and exposed to the test compound for 48 hours. Compounds are tested at a single concentration, which is 10^-5 M for most compounds. The reported endpoint is percent growth (GI% or GIPRCNT), where numbers from 0 - 100% represent growth inhibition, and numbers from -100% - 0 represent cell death. For example, a value of 40 represents 60% growth inhibition. […]
Compounds without any hit were thinned out: in the full panel of roughly 83,000, 20% have a hit.
Hi! Could you send only the number? It should be in %, unit omitted.

- molecule: "COc1ccc(C2C3=C(COC3=O)N(CCO)c3cc4c(cc32)CCC4)cc1OC (stereo not given)"
  measured.target: "PC-3 prostate"
  unit.text: "%"
  growth: 23.4
- molecule: "O=C1N=c2ccccc2=C1c1sc(=Nc2ccccc2)n(Nc2ccccc2)c1O"
  measured.target: "PC-3 prostate"
  unit.text: "%"
  growth: 97.3

growth lookup needed for `O=C(Nc1ccccc1O)c1ccc(-c2ccc(Cl)cc2Cl)o1` , thanks. 71.7

growth lookup needed for `O=C1c2cc(Br)ccc2Oc2cc([N+](=O)[O-])ccc2N1c1ccc(I)cc1F` , thanks. 103

growth lookup needed for `Cc1ccc2c(n1)C(=O)C(Oc1ccc(Br)cc1)=CC2=O` , thanks. 95

====

Test system: OVCAR-8 ovarian
procedure.summary: NCI-60 one-dose screen, 48 h (100 = growth as untreated, 0 = no growth, -100 = all killed)
conditions.used: 10 µM unless noted
Compounds without any hit were thinned out: in the full panel of roughly 83,000, 20% have a hit. Calls of active or inactive are those of the source. How the source made its calls: active means growth percent below 10; inactive means the rest.
Property: growth; scope: individual compounds

- record.smiles: "Cc1sc2ncn(CC(=O)Nc3ccc(S(N)(=O)=O)cc3)c(=O)c2c1C"
  reported.result: "96.5% (inactive)"
- record.smiles: "Nc1ccc(-c2nn3c(CCC(=O)c4nc5ncccc5[nH]4)nnc3s2)c(O)c1"
  reported.result: "98.2% (inactive)"
- record.smiles: "COc1ccc(-c2cn3c(C(=O)Nc4ccccc4Cl)c(-c4ccccc4)c4c3n2CCCC4)cc1"
  reported.result: "83.6% (inactive)"

growth lookup needed for `O=C1c2cc(Br)ccc2Oc2cc([N+](=O)[O-])ccc2N1c1ccc(I)cc1F` , thanks. 94.6% (inactive)

growth lookup needed for `O=C1C(Cl)=C(NCc2ccco2)C(=O)c2ccccc21` , thanks. 93.7% (inactive)

====

Tested on: MALME-3M melanoma
procedure.summary: NCI-60 one-dose screen, 48 h (100 = growth as untreated, 0 = no growth, -100 = all killed)
conditions.used: 10 µM unless noted
About 83,000 compounds went through this panel and 20% of them were active in at least one assay; those are over-represented in the sample as a whole.
property: growth (%)
Hi! Could you send only the number? It should be in %, unit omitted.

Observe how each entry below is paired with its result.
- molecule: "Cc1c(-c2csc(-n3nc(C(F)(F)F)cc3C(F)(F)F)n2)no[n+]1[O-]"
  measured.target: "MALME-3M melanoma"
  unit.text: "%"
  growth: 96.8
- molecule: "CCOC(=O)C1=CN(C)C=C(C(=O)OCC)C1c1cc(Br)c(OCC)c(OC)c1"
  measured.target: "MALME-3M melanoma"
  unit.text: "%"
  growth: -1.58
- molecule: "COc1cc(NC(=O)CCSc2nc3ccccc3c(=O)n2CCc2ccccn2)cc(OC)c1OC"
  measured.target: "MALME-3M melanoma"
  unit.text: "%"
  growth: 59
- molecule: "COc1ccc(-c2nc(N3CCN(C(=O)C4CCCCC4)CC3)c3c4c(sc3n2)CCCC4)cc1"
  measured.target: "MALME-3M melanoma"
  unit.text: "%"
  growth: -56.2
- molecule: "O=C(/C=C/c1ccc(Cl)cc1)c1ccc(Nc2nc(NCCO)nc(N3CCOCC3)n2)cc1"
  measured.target: "MALME-3M melanoma"
  unit.text: "%"
  growth: 99.5

What reported growth corresponds to `COc1ccc(Cn2cc(Cn3cc(C=C4C(=O)NC(=O)NC4=O)c4ccccc43)nn2)cc1` on MALME-3M melanoma? 85.5

====

System: SF-268 CNS
procedure.summary: NCI-60 one-dose screen, 48 h (100 = growth as untreated, 0 = no growth, -100 = all killed)
conditions.used: 10 µM unless noted
This is part of a sample that, as a whole, favours compounds with a hit. Of some 83,000 tested, about 20% had one in any assay.
Property: growth; scope: individual compounds
Hi! Could you send only the number? It should be in %, unit omitted.

- compound: "O=C(NC1CCN(Cc2ccccc2)CC1)c1cc2nc(-c3ccc(Cl)s3)cc(C(F)(F)F)n2n1"
  measured.target: "SF-268 CNS"
  growth [%]: 66.7

growth lookup needed for `O=c1oc2ccc(Br)cc2c(=O)n1-c1ccc(I)cc1F` , thanks. 6.16

growth lookup needed for `O=C(Nc1ccc(F)c(Cl)c1)Nc1ccc(Cl)c(Cl)c1` , thanks. 88.1

growth lookup needed for `Brc1ccc(Nc2nc3ccccc3nc2Nc2ccc(Br)cc2)cc1` , thanks. 3.08

growth lookup needed for `CCOC(=O)C(CC(=O)O)=C(C(=O)OCC)C(=O)OCC` , thanks. 107

====

Tested on: MALME-3M melanoma
procedure.summary: NCI-60 one-dose screen, 48 h (100 = growth as untreated, 0 = no growth, -100 = all killed)
conditions.used: 10 µM unless noted
This is part of a sample that, as a whole, favours compounds with a hit. Of some 83,000 tested, about 20% had one in any assay.
property: growth (%)
Hi! Could you send only the number? It should be in %, unit omitted.

- compound: "CCOC(=O)c1ccc2[nH]c(-c3ccccc3)cc(=O)c2c1"
  unit.text: "%"
  growth: 104
- compound: "COc1cc(NC(=O)CCSc2nc3ccccc3c(=O)n2Cc2ccccc2)cc(OC)c1OC"
  unit.text: "%"
  growth: 82
- compound: "CCCCNc1nc(NC(C)(C)C)nc(NC(C)(C)C)n1"
  unit.text: "%"
  growth: 87.3

growth lookup needed for `O=C1OC(c2ccccc2)(c2ccccc2)c2ccsc21` , thanks. 87.2

growth lookup needed for `CCOC(=O)c1c2c(n3cccc(Cl)c13)C(=O)c1ncccc1C2=O` , thanks. 42.7

====

System: HCC-2998 colon
procedure.summary: NCI-60 one-dose screen, 48 h
conditions.used: 10 µM unless noted
This is part of a sample that, as a whole, favours compounds with a hit. Of some 83,000 tested, about 20% had one in any assay. Active and inactive are the calls of the source. How the source made its calls: active means growth percent below 10; inactive means the rest.
Return exactly one item of yes (1) = active, no (0) = inactive

- compound: "CCOc1c(Br)cc(C2C(C(=O)OC)=CN(C)C=C2C(=O)OC)cc1OC"
  discrete.label: "yes (1)"
- compound: "O=C1/C(=C/c2cccc(O)c2)COc2ccc(O)cc21"
  discrete.label: "no (0)"

Outcome? Cc1ccc(C2CC(c3ccc(Nc4nc(NCCO)nc(Nc5ccc(Cl)cc5)n4)cc3)=NN2c2cc(Cl)cc(Cl)c2)cc1 (stereo unspecified) no (0)

Outcome? `Nc1ccc(-n2c(=O)oc3ccc(Cl)cc3c2=O)c(Cl)c1` no (0)

====

Property: growth; scope: individual compounds
System: SK-MEL-5 melanoma
procedure.summary: NCI-60 one-dose screen, 48 h (100 = growth as untreated, 0 = no growth, -100 = all killed)
conditions.used: 10 µM unless noted
This is part of a sample that, as a whole, favours compounds with a hit. Of some 83,000 tested, about 20% had one in any assay.
Hi! Could you send only the number? It should be in %, unit omitted.

Observe how each entry below is paired with its result.
- compound: "COc1ccc(C)c2sc(N(Cc3cccnc3)C(=O)c3ccc(C#N)cc3)nc12"
  growth [%]: -62.2
- compound: "COC(=O)/C(CCC=C(C)C)=C1\\[C@@H](OC(C)=O)C[C@@]2(C)[C@H]1C[C@@H](O)[C@H]1[C@@]3(C)CC[C@H](NCCCNCCCCNCCCN)[C@@H](C)[C@@H]3CC[C@@]12C"
  growth [%]: 12.6
- compound: "COc1ccc(-n2c(C(O)c3ccccc3)n[nH]c2=S)cc1 (stereo not given)"
  growth [%]: 107
- compound: "COCCN(C(=O)Cc1cccs1)C(C(=O)NCc1ccc(OC)cc1)c1ccc(C(C)C)cc1 (stereo not given)"
  growth [%]: 98.2
- compound: "COc1cc(/C=C/C(=O)c2ccc(Nc3nc(NCCO)nc(N4CCOCC4)n3)cc2)cc(OC)c1OC"
  growth [%]: 10.5
- compound: "O=C1c2ccc3c4c(ccc(c24)C(=O)N1CCCCO)C(=O)N(CCCCO)C3=O"
  growth [%]: 78.4
- compound: "O=S(=O)(c1ccc(NC(=S)NC23CC4CC(CC(C4)C2)C3)cc1)N1CCCCC1"
  growth [%]: 87.7
- compound: "COc1ccc(/C=C2\\NC(=O)NC2=O)cc1O"
  growth [%]: 102
- compound: "Clc1ccc(Nc2nnc(-c3ccc4c(c3)OCO4)o2)cc1"
  growth [%]: 104
- compound: "CCCc1c(C)c2sc(=O)[nH]c2[nH]c1=O"
  growth [%]: 100

What reported growth corresponds to `O=C1/C=C/[C@@H](O)[C@@H]2C[C@@H](O)C[C@H]2/C=C/CCCCO1` on SK-MEL-5 melanoma? -93.1

What reported growth corresponds to `Fc1ccc(Oc2ccc(Nc3ncnc4onc(-c5ccccc5)c34)cc2)cc1` on SK-MEL-5 melanoma? 100
